Tested on: Cell membrane
PROTOCOL NOTES: Induction of cytoplasmic membrane depolarization in Escherichia coli assessed as increase in fluorescence intensity a 1XMIC by DiSC3-5 dye based fluorescence method
The source made the active and inactive calls. The calls are words filed in the database; no cut-off is given here. Where a SMILES comes first, the peptide text is derived from it. [ ]: non-standard residue; d: D form. Orn = NCCC[C@H](N)C(=O)O
Outcome codes: active, inactive

- COMPOUND: "CC(C)C[C@@H]1NC(=O)[C@H](CCCN)NC(=O)[C@H](CCCN)NC(=O)[C@H](CCCN)NC(=O)[C@H](CCCN)NC(=O)[C@H](CCCN)NC(=O)[C@@H](Cc2ccccc2)NC(=O)[C@H](Cc2ccccc2)NC(=O)[C@@H]2CCCN2C(=O)[C@@H](Cc2ccccc2)NC1=O"
  ASSIGNED CATEGORY: "active"
- COMPOUND: "CC(C)C[C@@H]1NC(=O)[C@H](CCCN)NC(=O)[C@H](C(C)C)NC(=O)[C@H](CCCN)NC(=O)[C@H](CCC(N)=O)NC(=O)[C@H](CCCN)NC(=O)[C@@H](Cc2ccccc2)NC(=O)[C@H](Cc2ccccc2)NC(=O)[C@@H]2CCCN2C(=O)[C@@H](Cc2ccccc2)NC1=O"
  ASSIGNED CATEGORY: "active"
- COMPOUND: "CC(C)C[C@@H]1NC(=O)[C@H](CCCN)NC(=O)[C@H](C(C)C)NC(=O)[C@H](Cc2ccc(O)cc2)NC(=O)[C@H](CCC(N)=O)NC(=O)[C@H](CC(N)=O)NC(=O)[C@@H](Cc2ccccc2)NC(=O)[C@H](Cc2ccccc2)NC(=O)[C@@H]2CCCN2C(=O)[C@@H](Cc2ccccc2)NC1=O [TYROCIDINE A] (cyclo(F[dF]NQYV[Orn]L[dF]P))"
  ASSIGNED CATEGORY: "active"
- COMPOUND: "NCCC[C@@H]1NC(=O)[C@H](CCCN)NC(=O)[C@H](CCCN)NC(=O)[C@H](CCCN)NC(=O)[C@@H](Cc2ccccc2)NC(=O)[C@H](Cc2ccccc2)NC(=O)[C@@H]2CCCN2C(=O)[C@@H](Cc2ccccc2)NC(=O)[C@H](CCCN)NC(=O)[C@H](CCCN)NC1=O"
  ASSIGNED CATEGORY: "inactive"
- COMPOUND: "CC(C)C[C@@H]1NC(=O)[C@H](CCCN)NC(=O)[C@H](C(C)C)NC(=O)[C@H](CCCN)NC(=O)[C@H](CCCN)NC(=O)[C@H](CCCN)NC(=O)[C@@H](Cc2ccccc2)NC(=O)[C@H](Cc2ccccc2)NC(=O)[C@@H]2CCCN2C(=O)[C@@H](Cc2ccccc2)NC1=O"
  ASSIGNED CATEGORY: "active"
